Reported apparent KD of MS2 coat protein is given for each of the following sequences.
tested on: MS2 coat protein; test: apparent KD of MS2 coat protein; designed switch direction (-1 OFF switch, 1 ON switch): 1; higher = weaker reporter binding; settings: input ligand: microRNA oligo, concentration not stated

>  <SEQUENCE_STRING>
ACAUGAGGAUCACCCAUGUAACACCUGAAAAUAAAACGAACACAGGAUAUCCCGACAUGACGUUGGGAGAAGGGUGAUCGAAGA [Leenrien] (Eterna round: R96, puzzle: Same State NG 3)

>  <STUDY_SYSTEM>
MS2 coat protein

>  <apparent KD of MS2 coat protein, nM>
202

$$$$
>  <SEQUENCE_STRING>
CUCGUAUCGGGAGGAUAUGGUGCCUUGUUGGUGCUAGAAGGUCCAACAUGAGGAUCACCCAUGUGCGAGUGGUUGAGAGACCUC [SS NG10LRO14] (Eterna round: R96, puzzle: Same State NG 1)

>  <STUDY_SYSTEM>
MS2 coat protein

>  <apparent KD of MS2 coat protein, nM>
506

$$$$
>  <SEQUENCE_STRING>
UAAAUACAUGAGGAUCACCCAUGUCAAAAGACAUGAGGAUAUGUACAGACUUCGGUCUGUACAGAAGGCAUGAAUA [salish99_ss1_r3_096] (Eterna round: R96, puzzle: Same State 1)

>  <STUDY_SYSTEM>
MS2 coat protein

>  <apparent KD of MS2 coat protein, nM>
417

$$$$
>  <SEQUENCE_STRING>
GGCUAGGAUAUCUGCAGGAUCACCGCGGAGAAGGAGCUAAGCUAGGAUAUCCGCAGGAUCACCGCGGAGAAGGAGCAUCAUCUC [pwkr ssNG3 DX 2xF5 +2xFMN.16] (Eterna round: R96, puzzle: Same State NG 3)

>  <STUDY_SYSTEM>
MS2 coat protein

>  <apparent KD of MS2 coat protein, nM>
123

$$$$
>  <SEQUENCE_STRING>
UAUCGUUUGAUAGGAUAUCGCUAUACAUGAGGAUCACCCAUGUUUACCACGCUGGUUUUUCAUACCGAGAAGGAUUCUGAUGAG [salish99_SSNG02_r04_005] (Eterna round: R96, puzzle: Same State NG 2)

>  <STUDY_SYSTEM>
MS2 coat protein

>  <apparent KD of MS2 coat protein, nM>
33.2

$$$$
